Tested on: SKMel29
ASSAY: Antiproliferation MTT assay, SKMel29
Assay type: cell-based
TEST PARAMETERS: Melanoma
MEASUREMENT TYPE: IC50 (nM)

1. Nc1ncc(-c2cn3cc(CN4CCN(c5ncc(C(=O)NO)cn5)CC4)nc3c(N3CCOCC3)n2)cn1 [Final Compound 2] : 16

A. CN(Cc1cn2cc(-c3cnc(N)nc3)nc(N3CCOCC3)c2n1)c1ncc(C(=O)NO)cn1 [Final Compound 3]
B. Nc1ncc(-c2cn3cc(CNc4ncc(C(=O)NO)cn4)nc3c(N3CCOCC3)n2)cn1 [Final Compound 1]
Between A and B , which one shows the larger IC50 value? Reply briefly: the label of your chosen item.
B
(B: 1330 nM, A: 16 nM)
